Provenance of the data: PubChem BioAssay (NCI)

TEST: NCI Yeast Anticancer Drug Screen. Data for the sgs1 mgt1 strain (AID 161);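 also: 0% = growth of cultures given vehicle only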
EXPERIMENTAL_SETUP: S. cerevisiae sgs1 mgt1 strain, at 50.0 µM
Compounds without any hit were thinned out: in the full panel of roughly 79,000, 15% have a hit. Activity calls are given as the source filed them. Rule as the data show it: active = growth inhibition above about 70%; inactive = the rest.
Possible outcomes: 1 (active), 0 (inactive)

STRUCTURE	CATEGORY
O=[N+]([O-])c1ccc2nc(=S)[nH]n2c1	0
O=C(NCCCCN(CCCNC(=O)C(F)(F)F)Cc1ccccc1)C(F)(F)F	0
CCCCCc1c(CCCC)c(=O)[nH]c2cc(CNCC(OC)OC)ccc12	1
Cc1ccc(S(=O)(=O)N/N=C/C(Br)=C(/Br)C(=O)O)cc1	0
CC(C)OP(=O)(OC(C)C)C(=NCCO)NNc1ccc([N+](=O)[O-])cc1	1
COc1ccc(C(=O)/C=C\c2ccc(Cl)c(Cl)c2)cc1	1

====

TEST: NCI Yeast Anticancer Drug Screen. Data for the rad52 strain (AID 147);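 also: 0% = growth of vehicle-treated control cultures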
EXPERIMENTAL_SETUP: S. cerevisiae rad52 mutant growth inhibition; at 33.0 µM; stronger effect = higher value
This is part of a sample that, as a whole, favours compounds with a hit. Of some 79,000 tested, about 15% had one in any assay. The source made the active and inactive calls. Rule as the data show it: active = growth inhibition above about 70%; inactive = the rest.
RECORDED_ENDPOINT: growth inhibition

COMPOUND	RECORDED_MEASUREMENT
CCN(CC)CCCNc1ccc([N+](=O)[O-])c2nc3ccc(OC)cc3c(NCCCN(CC)CC)c12	11% (inactive)
O=C1c2ccccc2-c2ccc(N=Cc3ccccc3)cc21	68% (inactive)
C1=CCN([B-](c2ccccc2)[C+]2CCCCC2)C=C1	58% (inactive)
O=C1C(=O)N(c2ccccc2)[C@@]2(c3ccccc3)C(=Nc3ccccc3)OC(c3ccccc3)=C12	4% (inactive)
CCCC/C=C1\CCC(CN2CCCC2)C1=O (centres undefined)	17% (inactive)
COC(=O)C1CCCCC1C(=O)Nc1ccccc1 (centres undefined)	1% (inactive)
CC(=O)N1C=Cc2c(c(C)c3c([nH]c4ccccc43)c2C)C1	96% (active)
O=S1(=O)CCC2=CC(C(F)(F)F)=CC(C(F)(F)F)=CN21	89% (active)
CNC(=O)OCc1c(COC(=O)NC)c(C)n(-c2ccc(Br)cc2)c1C	6% (inactive)
COC(=O)c1cnc(Cl)c([N+](=O)[O-])c1	98% (active)
CC(C)OC(=O)NNc1c(Cl)cc(Cl)cc1Cl	6% (inactive)
CC(C)S(=O)(=O)/C=C\S(=O)(=O)C(C)C	75% (active)
CCOC(=O)C(Cc1c2ccccc2cc2ccccc12)(NC(C)=O)C(=O)OCC	-6% (inactive)
CCCCCCCCSC1=C(Cl)C(=O)C(OC)=C(OC)C1=O	53% (inactive)
COc1cc(C2C3=C(COC3=O)Oc3cc4c(cc32)OCO4)cc(OC)c1O (centres undefined)	93% (active)
O=C(NCCCCN1CC2CCCC2C1)C(C1CCCCC1)C1CCCCC1 (centres undefined)	76% (active)
COc1cc2oc3ccccc3c(=O)c2cc1CSc1ccccc1N	8% (inactive)
NC(N)=NC(N)=Nc1ccccc1 (tested in a mixture with another compound)	2% (inactive)
Nc1ccc2c(c1)C(=O)c1c(F)cccc1-2	69% (inactive)
CCC[CH2][Sn]([CH2]CCC)([CH2]CCC)/[C](=C/[Si](C)(C)c1ccccc1)c1ccc2c(c1)OCO2	90% (active)
CCCCCc1c(CCCC)c(=O)[nH]c2cc(CNCC(OC)OC)ccc12	98% (active)
Cc1ccc(S(=O)(=O)NC(=O)C2C(=O)CC3(CCCCC3)CC2=O)cc1	7% (inactive)
CCN(CC)C(=S)N/N=C(\C)c1ccccc1O	96% (active)
O=c1cccccc1[O-].O=c1cccccc1[O-].O=c1cccccc1[O-].[Eu+3]	97% (active)
S=C(NCc1ccccn1)N/N=C/c1ccccn1	99% (active)
Cc1cc(Cl)ccc1NC(=O)/C(Cl)=C(/Cl)C(=O)O	70% (active)
Nc1ccc(N=Nc2ccc(-c3ccc(O)cc3)cc2)c2ccc(S(=O)(=O)O)cc12	39% (inactive)
O=[N+]([O-])c1ccc(C(c2c[nH]c3ccccc23)c2c[nH]c3ccccc23)cc1	90% (active)
Brc1ccc(B2Nc3ccccc3N2)cc1	42% (inactive)

====

TEST: NCI Yeast Anticancer Drug Screen. Data for the mlh1 strain (AID 171);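 also: 0% = growth of vehicle-treated control cultures of the same strain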
EXPERIMENTAL_SETUP: S. cerevisiae mlh1 strain growth inhibition; at 100.0 µM
This is part of a sample that, as a whole, favours compounds with a hit. Of some 79,000 tested, about 15% had one in any assay. Activity calls are given as the source filed them. No stated cut-off is given here; in the data, active means growth inhibition above about 70%; inactive means the rest.
Outcome codes: t = active, f = inactive

COMPOUND	CATEGORY
COc1ccc(N=c2cc(-c3ccccc3)oc3ccccc23)cc1	f
O=C1Oc2ccccc2C(=O)/C1=C/N1C(=O)N/C(=C\c2ccccc2Br)C1=O	t
O=C(O)c1ccc2cc(Cl)c3ccccc3c2c1	f
CN(C)CC(CN(C)C)C(=O)/C=C/c1ccc(Cl)cc1Cl	t
O=C1C2=C(c3ccccc31)C(c1ccccc1)N1C(=O)CSC1=N2 (stereo unspecified)	t
Cc1cc(C)c2[s+]snc2c1	f
CC1C(c2ccccc2)SC(=N)N1C (stereo unspecified)	f
CC1CCC(C2=CSC3CCCCC3N2)CC1 (stereo unspecified)	t
Cc1ccc(NC(Nc2ccc(C)cc2C)=C(C(Cl)=C(Cl)Cl)[N+](=O)[O-])c(C)c1	t
CCCCS(=O)(=O)Nc1ccc(Nc2c3ccccc3nc3ccccc23)c(OC)c1	t
Nc1ccc(N=Nc2ccc(-c3ccc(O)cc3)cc2)c2ccc(S(=O)(=O)O)cc12	f

====

Consider the following compounds and their measured growth inhibition readings.
TEST: NCI Yeast Anticancer Drug Screen. Data for the sgs1 mgt1 strain (AID 161);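 also: 0% = growth of cultures given vehicle only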
EXPERIMENTAL_SETUP: S. cerevisiae sgs1 mgt1 strain, at 50.0 µM, stronger effect = higher value
The panel holds about 79,000 compounds, 15% with a hit somewhere; the sample as a whole holds those more often.

COMPOUND	UOM	growth inhibition
c1ccc2c(c1)ccn2CCc1c[nH]c2ccccc12	%	57.9
O=S1(=O)CCC2=CC(C(F)(F)F)=CC(C(F)(F)F)=CN21	%	94.4
O=C(Nc1ccc(Cl)cc1)c1cc2cc(N=Nc3ccccc3Cl)ccc2oc1=O	%	84.8
C=CCNC1=C2C[C@@H](C)C[C@H](OC)[C@H](O)[C@@H](C)/C=C(\C)[C@H](OC(N)=O)[C@@H](OC)/C=C\C=C(/C)C(=O)NC(=CC1=O)C2=O	%	92
O=C(NOC(=O)c1ccc([N+](=O)[O-])cc1)c1ccc(Cl)cc1	%	91.3
COc1cc2c(cc1OC)[C@@H](Nc1ccc(C#N)cc1)C1COC(=O)[C@@H]1C2c1cc(OC)c(O)c(OC)c1 (stereo partly drawn)	%	88
NC(N)=NS(=O)(=O)c1ccc(Nc2c3ccccc3nc3c(C(=O)NC(CO)(CO)CO)cccc23)cc1	%	-20.5
CCCCS(=O)(=O)Nc1ccc(Nc2c3ccccc3nc3ccccc23)c(OC)c1	%	84
O=C(/N=N/C(=O)Oc1ccccc1)Oc1ccccc1	%	48.6
CCOc1ccc(N)c(S)c1	%	98.2
CCN(CC)CCNc1ccc2ncn3c4ccc(O)cc4c(=O)c1c23	%	-33.6
O=[N+]([O-])/C=C/c1cc2ccc3ccccc3c2[nH]1	%	98.7
COC(=O)c1cnc(Cl)c([N+](=O)[O-])c1	%	99.3
COc1ccc(C(C)c2cc3c(cc2OCC(C)=O)OCO3)cc1 (stereo not drawn)	%	9.55
COc1cc(NCCCCNCC(C)(C)C)c2ncccc2c1	%	51.8
CC1=CC(=C(c2ccc(N)c(C)c2)c2ccc(N)c(C)c2)C=CC1=N	%	83.7
O=C1SS(=O)c2ccccc21 (stereo not drawn)	%	50
CCC1(O)C(=O)OCc2c1cc1n(c2=O)Cc2cc3c(N)cccc3nc2-1 (stereo not drawn)	%	-2.35
O=C1CC(C(O)(C(F)(F)F)C(F)(F)Cl)CCC1C(O)(C(F)(F)F)C(F)(F)Cl (stereo not drawn)	%	99.5
CCCCCCCC/C=C\CCCCCCCCN	%	93
CS(=O)(=O)O.[Ag]	%	93.5
Cc1cc(C)c(S(=O)(=O)c2ccc(Cl)cc2)c(C)c1	%	77.1
Nc1cc2c(cc1N)-c1ccccc1C2=O	%	-11.9

====

TEST: NCI Yeast Anticancer Drug Screen. Data for the rad50EPP+ strain (AID 151);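 also: 0% = growth of vehicle-treated control cultures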
EXPERIMENTAL_SETUP: S. cerevisiae rad50 mutant strain, at 33.0 µM
This is part of a sample that, as a whole, favours compounds with a hit. Of some 79,000 tested, about 15% had one in any assay. The source made the active and inactive calls. Rule as the data show it: active = growth inhibition above about 70%; inactive = the rest.
Labels: active, inactive

MOLECULE	CATEGORY
Fc1ccc(Nc2ccc3ccccc3c2)cc1	inactive
CCCCCCCCCCCCOCCOCCOCC(N)=O	inactive
COc1cccc(/C=C2\S/C(=N/Nc3nc(-c4ccc([N+](=O)[O-])cc4)cs3)NC2=O)c1O	active
CCCCCCCCCCCCCCCCCCNc1nc(=O)n(C2CC(OP(=O)(O)OCC3OC(n4cc(F)c(=O)[nH]c4=O)CC3O)C(CO)O2)cc1F (stereo unspecified)	inactive
COc1ccc(C(C)c2cc3c(cc2OC(C)O)OCO3)cc1 (stereo unspecified)	inactive
CC(C)(C)c1ccc2c(c1)C(=O)c1ccccc1C2=O	inactive
CO[C@@]1([C@@H](Cl)c2ccccc2)C(=O)N(C)/C(=C\c2ccccc2)C(=O)N1C	inactive
COC(=O)c1cnc(Cl)c([N+](=O)[O-])c1	active
CCN(CC)C(=S)N/N=C(\C)c1ccccc1O	inactive
Cc1cc(O)c(C(C)C)cc1SC#N	inactive
O=CC1(F)CC1(c1ccccc1)c1ccccc1 (stereo unspecified)	inactive
